Sourced from ChEMBL document CHEMBL1671755

System: Human immunodeficiency virus 1
Assay: Antiviral activity against Human immunodeficiency virus 1 harboring protease inhibitor resistance-associated mutations and protease L76V mutation in viral protease assessed as fold change in drug susceptibility relative to wild type
Format: functional
Measured fold change (FC) by item
Provide a numeric answer; units are not to be included.

Would you please look over these solved cases?
| compound | fold change (FC) |
| --- | --- |
| CC(C)CN(C[C@@H](O)[C@H](Cc1ccccc1)NC(=O)O[C@H]1CCOC1)S(=O)(=O)c1ccc(N)cc1 [AMPRENAVIR] | 70.9 |
| COC(=O)N[C@H](C(=O)N[C@@H](Cc1ccccc1)[C@@H](O)CN(Cc1ccc(-c2ccccn2)cc1)NC(=O)[C@@H](NC(=O)OC)C(C)(C)C)C(C)(C)C [ATAZANAVIR] | 11.3 |
| CC(C)(C)NC(=O)[C@@H]1CN(Cc2cccnc2)CCN1C[C@@H](O)C[C@@H](Cc1ccccc1)C(=O)N[C@H]1c2ccccc2C[C@H]1O.O [INDINAVIR] | 60.1 |
| CC(C)CN(C[C@@H](O)[C@H](Cc1ccccc1)NC(=O)O[C@H]1CO[C@H]2OCC[C@H]21)S(=O)(=O)c1ccc(N)cc1 [DARUNAVIR] | 37.4 |
| CC(C)c1nc(CN(C)C(=O)N[C@H](C(=O)N[C@@H](Cc2ccccc2)C[C@H](O)[C@H](Cc2ccccc2)NC(=O)OCc2cncs2)C(C)C)cs1 [RITONAVIR] | 113.2 |

Request: Please report the measured fold change (FC) for Cc1c(O)cccc1C(=O)N[C@@H](CSc1ccccc1)[C@H](O)CN1C[C@H]2CCCC[C@H]2C[C@H]1C(=O)NC(C)(C)C [NELFINAVIR] tested on Human immunodeficiency virus 1.
Result: 36.1

Request: Provide fold change (FC), recorded with Human immunodeficiency virus 1, of Cc1cccc(C)c1OCC(=O)N[C@@H](Cc1ccccc1)[C@@H](O)C[C@H](Cc1ccccc1)NC(=O)[C@H](C(C)C)N1CCCNC1=O [LOPINAVIR]
Result: 174.2

Request: Recall the reported fold change (FC) of CCC[C@@]1(CCc2ccccc2)CC(O)=C([C@H](CC)c2cccc(NS(=O)(=O)c3ccc(C(F)(F)F)cn3)c2)C(=O)O1 [TIPRANAVIR] on Human immunodeficiency virus 1 and write it down.
Result: 3.6

Request: State fold change (FC) on Human immunodeficiency virus 1. Entry: CC(C)(C)NC(=O)[C@@H]1C[C@@H]2CCCC[C@@H]2CN1C[C@@H](O)[C@H](Cc1ccccc1)NC(=O)[C@H](CC(N)=O)NC(=O)c1ccc2ccccc2n1 [SAQUINAVIR]
Result: 43.5

* * *

Test system: Human immunodeficiency virus 1
Experiment: Antiviral activity against Human immunodeficiency virus 1 harboring M46I, M46L, I54V, and V82A mutations in viral protease assessed as fold change in drug susceptibility relative to wild type
Format: functional
Each entry below lists one item and its recorded fold change (FC) value.
// no unit string in output, number only

| compound.structure | fold change (FC) |
| --- | --- |
| CC(C)c1nc(CN(C)C(=O)N[C@H](C(=O)N[C@@H](Cc2ccccc2)C[C@H](O)[C@H](Cc2ccccc2)NC(=O)OCc2cncs2)C(C)C)cs1 | 37.6 |

Request: Please respond with reported fold change (FC) (system Human immunodeficiency virus 1) for COC(=O)N[C@H](C(=O)N[C@@H](Cc1ccccc1)[C@@H](O)CN(Cc1ccc(-c2ccccn2)cc1)NC(=O)[C@@H](NC(=O)OC)C(C)(C)C)C(C)(C)C .
Result: 5.7

Request: Enter recorded fold change (FC) with Human immunodeficiency virus 1 for CC(C)(C)NC(=O)[C@@H]1CN(Cc2cccnc2)CCN1C[C@@H](O)C[C@@H](Cc1ccccc1)C(=O)N[C@H]1c2ccccc2C[C@H]1O.O here.
Result: 9.7

Request: # return fold change (FC) of CC(C)CN(C[C@@H](O)[C@H](Cc1ccccc1)NC(=O)O[C@H]1CO[C@H]2OCC[C@H]21)S(=O)(=O)c1ccc(N)cc1 (system: Human immunodeficiency virus 1)
Result: 1.1

Request: Provide fold change (FC), system Human immunodeficiency virus 1, entry CC(C)CN(C[C@@H](O)[C@H](Cc1ccccc1)NC(=O)O[C@H]1CCOC1)S(=O)(=O)c1ccc(N)cc1
Result: 3.7

Request: State, for Human immunodeficiency virus 1, measured fold change (FC) of the compound listed here: Cc1cccc(C)c1OCC(=O)N[C@@H](Cc1ccccc1)[C@@H](O)C[C@H](Cc1ccccc1)NC(=O)[C@H](C(C)C)N1CCCNC1=O
Result: 28
